We begin with a simple list: items and their reported abundance fitness.
B1: Ankyrin repeat and SOCS box protein 14, residues 532 to 572; numbered along this chain, A6NK59 (parent)
chain: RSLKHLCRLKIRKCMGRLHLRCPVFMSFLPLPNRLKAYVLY

variants of: B1; assay: abundance fitness (aPCA) (normalised: wild type 0, dead -1); higher = more abundant; growth selection in yeast, the domain comes from the species named; conditions: Homo sapiens
endpoint-name: abundance fitness

mutant_id=R17S endpoint_name="abundance fitness" reported=0.227
mutant_id=V39G endpoint_name="abundance fitness" reported=-0.743
mutant_id=G16D endpoint_name="abundance fitness" reported=0.084
mutant_id=L29P endpoint_name="abundance fitness" reported=-0.342
mutant_id=L20Y endpoint_name="abundance fitness" reported=-0.655
mutant_id=Y38V endpoint_name="abundance fitness" reported=-0.558
mutant_id=K4D endpoint_name="abundance fitness" reported=-0.808
mutant_id=N33A endpoint_name="abundance fitness" reported=0.234
mutant_id=L3K endpoint_name="abundance fitness" reported=-0.575
mutant_id=L29F endpoint_name="abundance fitness" reported=-0.473
mutant_id=L20C endpoint_name="abundance fitness" reported=-0.296
mutant_id=M26I endpoint_name="abundance fitness" reported=-0.038
mutant_id=G16P endpoint_name="abundance fitness" reported=-0.105
mutant_id=I11P endpoint_name="abundance fitness" reported=-0.675
mutant_id=L40G endpoint_name="abundance fitness" reported=-0.312
mutant_id=L35A endpoint_name="abundance fitness" reported=-0.466
mutant_id=N33H endpoint_name="abundance fitness" reported=0.129
mutant_id=H19C endpoint_name="abundance fitness" reported=-0.236
mutant_id=K36M endpoint_name="abundance fitness" reported=-0.398
mutant_id=A37M endpoint_name="abundance fitness" reported=-0.207
mutant_id=S27A endpoint_name="abundance fitness" reported=-0.059
mutant_id=L6S endpoint_name="abundance fitness" reported=0.155
